This listing pairs compounds with measured TGI.
test system: UO-31 renal; assay: NCI tumour cell line growth inhibition, 48 h
The reply should be a number in µM, with the unit left off.

For C=C1C(=O)O[C@H]2C/C(C)=C/CC[C@]3(C)CCC[C@](C)(CC[C@@H]12)O3 , what is its reported TGI?
15.7

For O=c1cc(NNc2ccccc2F)[nH]c(=O)[nH]1 , what is its reported TGI?
24.6

For CCOC(=O)c1c(NC(=O)c2ccccc2)sc2c3c(ccc12)OCN(C)C3 , what is its reported TGI?
2.74

----------
system: SK-OV-3 ovarian; test: NCI tumour cell line growth inhibition, 48 h
quantity.measured: TGI

compound: CCOC(=O)c1nc2ccc(C(F)(F)F)cc2nc1Nc1ccc(F)cc1
quantity.measured: TGI
result: > 100 µM

Continue with the next compound.
Reported TGI for SK-OV-3 ovarian, given CC(NC1CCCC[C@H]1O)c1ccccc1 (some centres undefined) ?
> 100 µM
